Reported values of Population Apoptotic (%) for individual entries
Test system: U2OS
measurement-notes: Multiplex assay against U2OS
Assay type: toxicity, cell-based
reported-conditions: human, 24 h, 10 µM, compound concentration 10 uM, replicate 2
Answer format: numeric, % implied, no suffix.

Recorded Population Apoptotic (%), per entry:
# given-smiles, reported-result
data = [
    ("O=C(Nc1ccc(-n2nc(-c3cccnc3)cc2C(F)(F)F)cn1)c1ccc(-c2ccccc2)c(F)c1", 0),
    ("Cc1ccc2nc(NCCN)c3ncc(C)n3c2c1.O=C(O)C(F)(F)F.O=C(O)C(F)(F)F", 61),
    ("C=C1/C(=C\\C=C2/CCC[C@]3(C)[C@@H]([C@H](C)/C=C/[C@H](C)C(C)C)CC[C@@H]23)C[C@@H](O)C[C@@H]1O", 33),
]

IN: Look at this compound and give its reported Population Apoptotic (%). Cl.O=c1c2cccn2c2ccccc2n1CCCN1CCC(c2ccc(Cl)cc2)CC1
OUT: 87
